All values here come from patent US10590140B2.

Biological target: human α2δ-1 subunit of Cav2.2 calcium channel (Homo sapiens (Human))
Assay: Binding assay to human α2δ-1 subunit of Cav2.2 calcium channel ([3H]-Gabapentin)
Settings: binding to α2δ-1, [3H]-Gabapentin; read-out: Ki (nM) α2δ-1
recorded.endpoint: Ki

molecule=CCNc1ncc2c(n1)N(C)CCN(c1cccc(OCCCN(C)C)c1)C2=O reported="100 to 500 nM"

Prompt line: Suppose we examine the molecule CCNc1ncc2c(n1)N(C)CCN(c1cccc(OC(CCNC)c3ccccn3)c1)C2=O (stereo not shown) ; what Ki value has been reported?
Response line: 500 to 3000 nM

Prompt line: Sample "CCNc1ncc2c(n1)N(C)CCN(c1ccc(OC)cc1)C2=O" — what was its Ki?
Response line: > 3000 nM

Prompt line: Dear colleague, I am looking for the recorded Ki of the following molecule: CSc1ncc2c(n1)N(C)CCN(c1cccc(COC(CCN(C)C(=O)OC(C)(C)C)c3cccs3)c1)C2=O (stereo not shown)
Response line: > 3000 nM

###

Target: human α2δ-1 subunit of Cav2.2 calcium channel (Homo sapiens (Human), UniProt P54289)
Sequence (P54289 25-1103): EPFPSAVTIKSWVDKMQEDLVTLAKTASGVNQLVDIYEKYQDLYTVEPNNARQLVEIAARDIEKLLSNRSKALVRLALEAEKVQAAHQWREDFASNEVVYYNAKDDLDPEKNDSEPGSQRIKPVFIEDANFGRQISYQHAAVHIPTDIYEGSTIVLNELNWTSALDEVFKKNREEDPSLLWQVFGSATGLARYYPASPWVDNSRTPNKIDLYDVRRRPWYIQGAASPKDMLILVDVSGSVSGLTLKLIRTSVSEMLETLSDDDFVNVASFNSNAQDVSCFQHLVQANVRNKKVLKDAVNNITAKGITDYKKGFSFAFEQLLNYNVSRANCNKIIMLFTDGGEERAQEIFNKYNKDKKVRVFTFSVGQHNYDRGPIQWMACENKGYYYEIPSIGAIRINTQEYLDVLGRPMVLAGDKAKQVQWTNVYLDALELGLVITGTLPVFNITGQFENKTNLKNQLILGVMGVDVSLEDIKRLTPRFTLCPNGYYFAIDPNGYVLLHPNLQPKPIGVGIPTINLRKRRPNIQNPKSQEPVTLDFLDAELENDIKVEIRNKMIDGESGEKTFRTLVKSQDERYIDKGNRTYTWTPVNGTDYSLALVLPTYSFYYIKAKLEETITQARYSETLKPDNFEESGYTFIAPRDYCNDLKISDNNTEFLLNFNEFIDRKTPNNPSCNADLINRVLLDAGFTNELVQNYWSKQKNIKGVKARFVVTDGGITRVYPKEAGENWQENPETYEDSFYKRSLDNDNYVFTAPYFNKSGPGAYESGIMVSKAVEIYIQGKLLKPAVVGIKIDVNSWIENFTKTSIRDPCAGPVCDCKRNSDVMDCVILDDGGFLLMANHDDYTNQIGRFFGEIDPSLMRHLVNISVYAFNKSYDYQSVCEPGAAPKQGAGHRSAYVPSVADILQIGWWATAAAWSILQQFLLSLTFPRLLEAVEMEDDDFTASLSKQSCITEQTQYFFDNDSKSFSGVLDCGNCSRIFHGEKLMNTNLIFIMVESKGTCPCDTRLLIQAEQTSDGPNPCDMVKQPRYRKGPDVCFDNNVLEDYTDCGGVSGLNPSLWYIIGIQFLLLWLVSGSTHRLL
Assay: Binding assay to human α2δ-1 subunit of Cav2.2 calcium channel ([3H]-Gabapentin)
Settings: binding to α2δ-1, [3H]-Gabapentin; read-out: Ki (nM) α2δ-1
Method: Binding Assay to Human α2δ-1 Subunit of Cav2.2 Calcium Channel. NSB (non specific binding) was measured by adding 10 μM pregabalin. […] Filter plates were dried at 60° C. for 1 hour and 30 μl of scintillation cocktail were added to each well before radioactivity reading.
recorded.endpoint: Ki

Example entries and their recorded answers appear below.
molecule="CCNc1ncc2c(n1)N(C)CCN(c1cccc(OC(CNC)C(C)C)c1)C2=O (stereo not shown) [Example 158]" assayed_target="human α2δ-1 subunit of Cav2.2 calcium channel (Homo sapiens (Human), UniProt P54289)" recorded_endpoint=Ki reported="500 to 3000 nM"
molecule="CCNc1ncc2c(n1)N(C)CCN(c1cccc(C3CCN(C)CC3)c1)C2=O [Example 260]" assayed_target="human α2δ-1 subunit of Cav2.2 calcium channel (Homo sapiens (Human), UniProt P54289)" recorded_endpoint=Ki reported="100 to 500 nM"
molecule="CCNc1ncc2c(n1)N(C)CCN(Cc1ccc(OC(CCNC)c3ccccc3)cc1)C2=O (stereo not shown) [Example 408]" assayed_target="human α2δ-1 subunit of Cav2.2 calcium channel (Homo sapiens (Human), UniProt P54289)" recorded_endpoint=Ki reported="500 to 3000 nM"
molecule="CCNc1ncc2c(n1)N(C)CCN(c1cccc(-n3cc(CN)nn3)c1)C2=O [Example 181]" assayed_target="human α2δ-1 subunit of Cav2.2 calcium channel (Homo sapiens (Human), UniProt P54289)" recorded_endpoint=Ki reported="100 to 500 nM"
molecule="CCNc1ncc2c(n1)N(C)CCN(c1cccc(COCC(c3ccccc3)N(C)C(=O)OC(C)(C)C)c1)C2=O (stereo not shown) [Example 86]" assayed_target="human α2δ-1 subunit of Cav2.2 calcium channel (Homo sapiens (Human), UniProt P54289)" recorded_endpoint=Ki reported="> 3000 nM"

Prompt line: Fill in: Ki of CNCCC(Oc1ccc(CN2CCN(C)c3ncncc3C2=O)cc1)c1ccccc1 (stereo not shown) [Example 430] is ___
Response line: 500 to 3000 nM

Prompt line: Name the recorded Ki for CCNc1ncc2c(n1)N(C)CCN(c1cccc(OC(C)CN(C)Cc3ccccc3)c1)C2=O (stereo not shown) [Example 262] .
Response line: 500 to 3000 nM

Prompt line: Sample CCNc1ncc2c(n1)N(C)CCN(c1cccc(CCN3CCC4(CC3)CN(C(C)C)C(=O)[C@@H](C)O4)c1)C2=O [Example 276] — what was its Ki?
Response line: 100 to 500 nM

Prompt line: Data request, read-out Ki, for CCNc1ncc2c(n1)N(C)CCN(c1ccccc1COC(CNC)c1ccccc1)C2=O (stereo not shown) [Example 339]
Response line: > 3000 nM

Prompt line: Give the measured Ki of CNCCC(Oc1ccc(N2CCN(C)c3ncncc3C2=O)cc1)c1ccccc1 (stereo not shown) [Example 361] .
Response line: > 3000 nM

Prompt line: I am curious: what Ki value has been reported for CCNc1ncc2c(n1)N(C)CCN(c1cccc(COC(CCN(C)C(=O)OC(C)(C)C)c3cccs3)c1)C2=O (stereo not shown) [Example 83] ?
Response line: > 3000 nM

Prompt line: Quick check: Ki of CCNc1ncc2c(n1)N(C)CCN(c1cccc(COC(CCN(C)C(=O)OC(C)(C)C)c3ccccc3)c1)C2=O (stereo not shown) [Example 77] ?
Response line: > 3000 nM

Prompt line: Dear colleague, I am looking for the recorded Ki of the following molecule: CNCCC(OCc1cccc(N2CCN(C)c3cc(C)ncc3C2=O)c1)c1ccccc1 (stereo not shown) [Example 306]
Response line: 500 to 3000 nM

Prompt line: Which Ki is listed for CCNc1ncc2c(n1)N(C)CCN(c1cccc(O[C@H](CCN(C)C(=O)OC(C)(C)C)c3cccs3)c1)C2=O [Example 81] ?
Response line: > 3000 nM

Prompt line: Return reported Ki; argument: CCNc1ncc2c(n1)N(C)CCN(c1cccc(-n3cc(CN(C)C(=O)OC(C)(C)C)nn3)c1)C2=O [Example 116]
Response line: > 3000 nM

Prompt line: What measured Ki goes with CNCCC(OCc1ccc(N2CCN(C)c3nc(C)ncc3C2=O)cc1)c1ccccc1 (stereo not shown) [Example 353] ?
Response line: > 3000 nM
